System: E. faecalis ATCC 29212 (NB04001)
Where a name gives a salt, the structure may show the parent alone.
quantity_kind: MIC

{"compound": "C[C@H]1COc2c(N3CCC(C(C)(C)N)C3)c(F)cc3cc(C(=O)O)c(=O)n1c23 (single isomer, unassigned) [Example 1.43]", "MIC": "< 1 µg/mL"}

Quick check: MIC on E. faecalis ATCC 29212 (NB04001), item C[C@H]1COc2c(N3CC4CCCC4(N)C3)c(F)cc3cc(C(=O)O)c(=O)n1c23 (stereo partly drawn) [Example 1.13] ?
1 to 32 µg/mL

Record lookup: for E. faecalis ATCC 29212 (NB04001), what MIC belongs to C[C@H]1COc2c(N3CC[C@@H](C4(N)CC4)C3)c(C#N)cc3cc(C(=O)O)c(=O)n1c23 [Example 17, trifluoroacetate salt] ?
< 1 µg/mL

Test system E. faecalis ATCC 29212 (NB04001); read-out MIC; what value for C[C@H]1COc2c(N3CCC(O)(CN)CC3)c(F)cc3cc(C(=O)O)c(=O)n1c23 [Example 1.68] ?
> 32 µg/mL

What value of MIC on E. faecalis ATCC 29212 (NB04001) does C[C@H]1COc2c(N3CCCN(CC(F)F)CC3)c(F)cc3cc(C(=O)O)c(=O)n1c23 [Example 1.54] have?
> 32 µg/mL

---

List of MIC tested on E. faecalis ATCC 29212 (NB04001).

Data request, read-out MIC, for NC1([C@@H]2CCN(c3c(F)cc4cc(C(=O)O)c(=O)n5c4c3OC[C@@H]5CF)C2)CC1 [Example 4]
1 to 32 µg/mL

Quick one: MIC for C[C@H]1COc2c(N3CC4CCC(N)C4C3)c(F)cc3cc(C(=O)O)c(=O)n1c23 (single isomer, unassigned) [Example 1.28] ?
1 to 32 µg/mL

Bench note: what MIC did C[C@H]1COc2c(N3Cc4ccncc4C3)c(F)cc3cc(C(=O)O)c(=O)n1c23 [Example 1.15] show?
1 to 32 µg/mL

---

Examples of compounds with documented MIC follow.
Test system: E. faecalis ATCC 29212 (NB04001)
Where a name gives a salt, the structure may show the parent alone.

# annotated cases, reported MIC shown
{"compound": "CO/N=C1\\CN(c2c(F)cc3cc(C(=O)O)c(=O)n4c3c2OC[C@@H]4C)CC1CN (stereo partly drawn)", "result": "1 to 32 µg/mL"}
{"compound": "C[C@H]1CSc2c(N3CC[C@@H](C4(N)CC4)C3)c(F)cc3cc(C(=O)O)c(=O)n1c23.Cl", "result": "< 1 µg/mL"}
{"compound": "C[C@H]1COc2c(N3CC(CO)C(N(C)C)C3)c(F)cc3cc(C(=O)O)c(=O)n1c23 (single isomer, unassigned)", "result": "> 32 µg/mL"}
{"compound": "C[C@H]1COc2c(N3CC4CC4(CN)C3)c(F)cc3cc(C(=O)O)c(=O)n1c23 (stereo partly drawn)", "result": "1 to 32 µg/mL"}
{"compound": "COc1cc2cc(C(=O)O)c(=O)n3c2c(c1N1CC[C@@H](C2(N)CC2)C1)OC[C@@H]3C [Example 16, formate salt]", "result": "> 32 µg/mL"}

What MIC value was documented for this compound, C[C@H]1COc2c(N3CC4CC4(N)C3)c(F)cc3c(CN)cc(=O)n1c23 (stereo partly drawn) ?
1 to 32 µg/mL

I have this compound here, `C[C@H]1COc2c(N3CC[C@H](N)C3)c(F)cc3cc(C(=O)O)c(=O)n1c23` , and I need its recorded MIC.
1 to 32 µg/mL

Reported MIC for C[C@H]1COc2c(N3CCC(C4(N)COC4)C3)c(F)cc3cc(C(=O)O)c(=O)n1c23 (stereo partly drawn) : what is it?
> 32 µg/mL

Entry C[C@H]1COc2c(N3CCC4NCCCC4C3)c(F)cc3cc(C(=O)O)c(=O)n1c23 (mixture of isomers) has what MIC?
> 32 µg/mL

Data request, read-out MIC, for `NC1([C@@H]2CCN(c3c(F)cc4cc(C(=O)O)c(=O)n5c4c3OC[C@@H]5CO)C2)CC1.O=CO`
> 32 µg/mL

---

Test system: E. faecalis ATCC 29212 (NB04001)
Counter-ions that a name gives are not always drawn.
The following compounds are shown together with reported MIC values.

The examples below pair each entry with its known result.
{"compound": "C[C@H]1COc2c(N3CC4CC(N)C4C3)c(F)cc3cc(C(=O)O)c(=O)n1c23 (single isomer, unassigned)", "MIC": "> 32 µg/mL"}
{"compound": "C[C@H]1COc2c(N3CC4C(N)C4C3)c(F)c(F)c3cc(C(=O)O)c(=O)n1c23 (single isomer, unassigned)", "MIC": "< 1 µg/mL"}
{"compound": "C[C@H]1COc2c(N3CCC4(CC4N)C3)c(F)cc3cc(C(=O)O)c(=O)n1c23 (single isomer, unassigned)", "MIC": "1 to 32 µg/mL"}
{"compound": "C[C@H]1COc2c(N3CC[C@@H](C4(N)CC4)C3)c(F)cc3cc(C(=O)O)c(=O)n1c23.Cl", "MIC": "< 1 µg/mL"}

Look at this compound and give its reported MIC. `C[C@H]1COc2c(N3CC[C@@H]([C@@H](N)C(F)F)C3)c(F)cc3cc(C(=O)O)c(=O)n1c23`
< 1 µg/mL

Look up MIC for this compound: C[C@H]1COc2c(N3CC[C@@H](C4(N)CC4)C3)c(F)c(F)c3cc(C(=O)O)c(=O)n1c23 [Example 13.1, hydrochloride salt]
< 1 µg/mL

Which MIC value is on record for `C[C@H]1COc2c(N3CC[C@@H](C4(N)CC4)C3)c(F)cc3cc(C#N)c(=O)n1c23.O=C(O)C(F)(F)F` ?
< 1 µg/mL

---

Where a name gives a salt, the structure may show the parent alone.
Let's go through some recorded MIC values for E. faecalis ATCC 29212 (NB04001) together.

{"molecule": "C[C@@H]1Cn2c(=O)c(C(=O)O)cc3cc(F)c(N4CC[C@@H](C5(N)CC5)C4)c(c32)O1 [Example 1.22]", "MIC": "1 to 32 µg/mL"}
{"molecule": "C[C@H]1COc2c(N3CCN4C[C@@H](F)C[C@H]4C3)c(F)cc3cc(C(=O)O)c(=O)n1c23 [Example 1.73]", "MIC": "> 32 µg/mL"}
{"molecule": "C[C@H]1COc2c(N3CCN4C(=O)CCC4C3)c(F)cc3cc(C(=O)O)c(=O)n1c23 (stereo partly shown) [Example 1.14]", "MIC": "1 to 32 µg/mL"}

Consider the record given below.
// lookup MIC | system=E. faecalis ATCC 29212 (NB04001) | key= C[C@H]1COc2c(N3CC[C@@H](C4(N)CC4)C3)c(F)c(Cl)c3cc(C(=O)O)c(=O)n1c23 [Example 19.1, formate salt]
< 1 µg/mL

---

Tested on: E. faecalis ATCC 29212 (NB04001)
Structures can show the parent of a compound that is named as a salt.
Here, each record is paired with measured MIC data.

Return MIC measured with E. faecalis ATCC 29212 (NB04001) given this molecule: CNC[C@@H]1CCN(c2c(F)cc3cc(C(=O)O)c(=O)n4c3c2OC[C@@H]4C)C1 [Example 1.41]
1 to 32 mg/L

Hi! What's the reported MIC for O=C(O)c1cn(C2CC2)c2cc(N3CCNCC3)c(F)cc2c1=O [CIP, Ciprofloxacin, reference compound] on E. faecalis ATCC 29212 (NB04001)?
< 1 mg/L

Return MIC measured with E. faecalis ATCC 29212 (NB04001) given this molecule: C[C@H]1COc2c(N3CCC(C)(CN)C3)c(F)cc3cc(C(=O)O)c(=O)n1c23 (some centres unmarked) [Example 1.26]
1 to 32 mg/L

Give MIC (E. faecalis ATCC 29212 (NB04001)) of the following molecule: C[C@H]1COc2c(N3CC[C@@H](C4(N)CC4)C3)c(F)c(N)c3cc(C(=O)O)c(=O)n1c23 [Example 14, hydrochloride salt]
< 1 mg/L

What MIC appears in the records for this molecule with E. faecalis ATCC 29212 (NB04001)? C[C@H]1COc2c(N3CCC4(CCC4N)CC3)c(F)cc3cc(C(=O)O)c(=O)n1c23 (single isomer, unassigned) [Example 1.32]
1 to 32 mg/L

---

Counter-ions that a name gives are not always drawn.
Below are MIC values recorded for E. faecalis ATCC 29212 (NB04001).

Example compounds with recorded MIC:
{"compound": "C[C@H]1COc2c(N3CC[C@@H](C4(N)CC4)C3)cc(C#N)c3cc(C(=O)O)c(=O)n1c23 [Example 21.2]", "subject_of_test": "E. faecalis ATCC 29212 (NB04001)", "MIC": "1 to 32 µg/mL"}
{"compound": "C[C@H]1COc2c(N3CC(CN)C4(CCOCC4)C3)c(F)cc3cc(C(=O)O)c(=O)n1c23 (single isomer, unassigned) [Example 1.48]", "subject_of_test": "E. faecalis ATCC 29212 (NB04001)", "MIC": "< 1 µg/mL"}
{"compound": "C[C@H]1COc2c(N3CCC4CCNCC4C3)c(F)cc3cc(C(=O)O)c(=O)n1c23 (single isomer, unassigned) [Example 1.29]", "subject_of_test": "E. faecalis ATCC 29212 (NB04001)", "MIC": "> 32 µg/mL"}
{"compound": "C[C@H]1COc2c(N3CC4CC4(N)C3)ccc3cc(C(=O)O)c(=O)n1c23 (stereo partly drawn) [Example 12.6]", "subject_of_test": "E. faecalis ATCC 29212 (NB04001)", "MIC": "1 to 32 µg/mL"}
{"compound": "C[C@H]1COc2c(N3CCC4(CC3)CC4N)c(F)cc3cc(C(=O)O)c(=O)n1c23 (single isomer, unassigned) [Example 1.33]", "subject_of_test": "E. faecalis ATCC 29212 (NB04001)", "MIC": "1 to 32 µg/mL"}
{"compound": "CCC(N)C1CCN(c2c(F)cc3cc(C(=O)O)c(=O)n4c3c2OC[C@@H]4C)C1 (single isomer, unassigned) [Example 1.45]", "subject_of_test": "E. faecalis ATCC 29212 (NB04001)", "MIC": "< 1 µg/mL"}
{"compound": "C[C@H]1COc2c(N3CCN4CC(F)(F)C[C@H]4C3)c(F)cc3cc(C(=O)O)c(=O)n1c23 [Example 1.72]", "subject_of_test": "E. faecalis ATCC 29212 (NB04001)", "MIC": "> 32 µg/mL"}
{"compound": "C[C@H]1COc2c(N3CC4CC4(N)C3)c(F)c(F)c3cc(C(=O)O)c(=O)n1c23 (single isomer, unassigned) [Example 13.6]", "subject_of_test": "E. faecalis ATCC 29212 (NB04001)", "MIC": "< 1 µg/mL"}

Using the record for COc1c(N2CC[C@@H](C3(N)CC3)C2)c2c3c(cc(C(=O)O)c(=O)n3[C@@H](C)CO2)c1N [Example 15, formate salt] , report its MIC.
> 32 µg/mL

What does the record list as MIC for C[C@@H]1CN(c2c(F)cc3cc(C(=O)O)c(=O)n4c3c2OC[C@@H]4C)C[C@@]1(C)CN [Example 1.58] ?
1 to 32 µg/mL

Please give the measured MIC for this compound: C[C@H]1COc2c(N3CC4CNCC4C3)c(F)cc3cc(C(=O)O)c(=O)n1c23 (stereo partly drawn) [Example 1.37]
> 32 µg/mL

Give the measured MIC of CC(O)C1(F)CCN(c2c(F)cc3cc(C(=O)O)c(=O)n4c3c2OC[C@@H]4C)C1 (stereo partly drawn) [Example 1.44] .
1 to 32 µg/mL

Which MIC value is on record for C[C@H]1COc2c(N3CCC(=C(Cl)CN)CC3)c(F)cc3cc(C(=O)O)c(=O)n1c23 [Example 1.10] ?
1 to 32 µg/mL

Quick one: MIC of C[C@H]1COc2c(N3CC4C(N)C4C3)c(F)cc3cc(C(=O)O)c(=O)n1c23 (mixture of isomers) [Example 1.38] ?
1 to 32 µg/mL

For the compound C[C@H]1COc2c(N3CCC(F)(CN)C3)c(F)c(F)c3cc(C(=O)O)c(=O)n1c23 (stereo partly drawn) [Example 13.5] , what MIC is on record?
< 1 µg/mL
